# Experimental target: T1, cynomolgus monkey KLK5 (cynomolgus monkey, UniProt Q9Y337 67-293 (human entry))
# T1 construct: also called cyno KLK5
# T1 chain: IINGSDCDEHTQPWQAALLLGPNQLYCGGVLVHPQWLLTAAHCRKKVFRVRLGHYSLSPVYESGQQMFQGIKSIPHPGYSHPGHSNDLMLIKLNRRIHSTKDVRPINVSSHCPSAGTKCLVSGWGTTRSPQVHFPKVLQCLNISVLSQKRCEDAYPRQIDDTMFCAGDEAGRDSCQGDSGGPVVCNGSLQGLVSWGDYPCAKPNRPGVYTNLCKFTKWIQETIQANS
# Protocol: SPR, one-armed monovalent antibody
Outcome measure: koff (s⁻¹)

# Binder, Unit label, Experimental result
data = [
    ("OA.hu.10C5.N53V.S34K.F92Y.S95F (antibody, V domains shown, One-armed (OA) monovalent anti-KLK5 antibody with a human IgG1 Fc, with Q38E/Q39K; constant regions and dummy Fc chain not specified) VH: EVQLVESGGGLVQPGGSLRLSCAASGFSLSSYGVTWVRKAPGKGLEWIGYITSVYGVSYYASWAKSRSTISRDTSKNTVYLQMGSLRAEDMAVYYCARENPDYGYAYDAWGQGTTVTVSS VL: AIRMTQSPSSFSASTGDRVTITCQASESISNELKWYQEKPGKAPKLLIYYASTLASGVPSRFSGSGSGTDFTLTISSLQPEDFATYYCAQGYGSFGVENVFGGGTKVEIK", "s⁻¹", "2.81e-05"),
]
